For reference, Ki measured on SmHDAC8 (Schistosoma mansoni):
Numbers only; they are read as µM.

Use the examples below as a reference point.
>  <COMPOUND>
CN1CCC2(CC1)c1ccccc1N(Cc1ccc(C(=O)NO)s1)C2c1ccc(Cl)cc1 (stereo not drawn)

>  <Ki [µM]>
0.13

$$$$
>  <COMPOUND>
O=C(NO)c1ccc(Cn2c3c(c4cc(Br)ccc42)SC(c2ccccc2)C3)s1 (stereo not drawn)

>  <Ki [µM]>
9.7

$$$$

Proceed to the following item.
Retrieve Ki on SmHDAC8 (Schistosoma mansoni); query CN1CCC2(CC1)c1ccccc1N(Cc1ccc(C(=O)NO)s1)C2c1cccc(Cl)c1 (stereo not drawn)
Sequence (A5H660 1-440): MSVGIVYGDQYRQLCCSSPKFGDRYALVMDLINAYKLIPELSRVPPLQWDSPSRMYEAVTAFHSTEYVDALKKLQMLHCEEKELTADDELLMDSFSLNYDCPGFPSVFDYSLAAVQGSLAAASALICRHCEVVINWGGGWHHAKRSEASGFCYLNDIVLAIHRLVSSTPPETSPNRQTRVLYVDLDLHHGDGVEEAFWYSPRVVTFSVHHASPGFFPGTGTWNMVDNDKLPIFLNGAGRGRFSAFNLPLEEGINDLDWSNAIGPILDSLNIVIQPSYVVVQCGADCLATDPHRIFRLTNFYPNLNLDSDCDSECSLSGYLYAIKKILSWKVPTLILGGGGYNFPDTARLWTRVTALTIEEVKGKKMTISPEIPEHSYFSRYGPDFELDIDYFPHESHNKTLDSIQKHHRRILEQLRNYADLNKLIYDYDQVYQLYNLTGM
0.6
